Assay: Aqueous solubility at pH 6.5
Type: physicochemical
Measured solubility, listed per entry.
measured.quantity: solubility (µg/mL)

{"compound": "CCc1ccc(S(=O)(=O)N[C@@H]2c3cc(C(=O)N(CC)c4ccccc4)cnc3OC(C)(C)[C@H]2O)cc1 (racemic)", "u": "µg/mL", "obs.value": 108}
{"compound": "CCc1ccc(S(=O)(=O)N[C@@H]2c3cc(C(=O)N(CC)Cc4ccccc4F)ccc3OC(C)(C)[C@H]2O)cc1 (racemic)", "u": "µg/mL", "obs.value": 10}

----------
Property: inhibition; scope: individual molecules
Target: Potassium voltage-gated channel subfamily A member 5 (Homo sapiens, UniProt P22460)
Sequence (P22460 whole entry): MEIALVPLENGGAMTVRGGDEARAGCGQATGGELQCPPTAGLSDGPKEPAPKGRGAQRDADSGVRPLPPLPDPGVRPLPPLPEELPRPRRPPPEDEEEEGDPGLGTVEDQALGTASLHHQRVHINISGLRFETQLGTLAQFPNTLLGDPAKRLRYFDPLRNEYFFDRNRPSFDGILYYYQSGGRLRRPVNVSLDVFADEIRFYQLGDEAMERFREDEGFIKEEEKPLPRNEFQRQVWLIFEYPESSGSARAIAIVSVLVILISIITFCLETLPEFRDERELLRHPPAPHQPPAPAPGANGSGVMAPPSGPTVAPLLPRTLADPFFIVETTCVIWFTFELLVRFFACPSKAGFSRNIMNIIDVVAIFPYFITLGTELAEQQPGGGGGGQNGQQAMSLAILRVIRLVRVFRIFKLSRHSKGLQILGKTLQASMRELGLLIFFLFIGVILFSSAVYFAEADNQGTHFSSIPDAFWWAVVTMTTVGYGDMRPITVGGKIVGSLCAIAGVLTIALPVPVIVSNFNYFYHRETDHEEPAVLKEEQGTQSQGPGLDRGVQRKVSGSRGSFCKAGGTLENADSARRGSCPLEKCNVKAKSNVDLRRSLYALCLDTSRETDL
Experiment: Inhibition of human Kv1.5 channel expressed in mouse L929 cells assessed as blockade of ultra rapidly activating potassium current at 1 uM by voltage clamp technique
Format: cell-based
measured.quantity: inhibition (%)

{"molecule": "CCc1ccc(S(=O)(=O)N[C@@H]2c3cc(C(=O)Nc4nnc(C(F)(F)F)s4)cnc3OC(C)(C)[C@H]2O)cc1 (racemic)", "u": "%", "obs.value": 3}
{"molecule": "CCc1ccc(S(=O)(=O)N[C@@H]2c3cc(C(=O)N(CC)Cc4ccc(C)cc4)cnc3OC(C)(C)[C@H]2O)cc1 (racemic)", "u": "%", "obs.value": 15}
{"molecule": "CCc1ccc(S(=O)(=O)N[C@@H]2c3cc(C(=O)N4CCC[C@H]4CNc4c(C)cccc4C)cnc3OC(C)(C)[C@H]2O)cc1 (racemic)", "u": "%", "obs.value": 15}
{"molecule": "CCc1ccc(S(=O)(=O)N[C@@H]2c3cc(C(=O)N(CC)c4cccc(C)c4)cnc3OC(C)(C)[C@H]2O)cc1 (racemic)", "u": "%", "obs.value": 58}
{"molecule": "CCc1ccc(S(=O)(=O)N[C@@H]2c3cc(C(=O)N(CC)Cc4ccccc4OC)cnc3OC(C)(C)[C@H]2O)cc1 (racemic)", "u": "%", "obs.value": 35}
{"molecule": "CCc1ccc(S(=O)(=O)N[C@@H]2c3cc(C(=O)N(CC)c4cccc(Cl)c4)cnc3OC(C)(C)[C@H]2O)cc1 (racemic)", "u": "%", "obs.value": 64}
{"molecule": "CCc1ccc(S(=O)(=O)N[C@@H]2c3cc(C(=O)Nc4ccc(Br)cc4)cnc3OC(C)(C)[C@H]2O)cc1 (racemic)", "u": "%", "obs.value": 8}
{"molecule": "CCc1ccc(S(=O)(=O)N[C@@H]2c3cc(C(=O)NCc4ccccc4)cnc3OC(C)(C)[C@H]2O)cc1 (racemic)", "u": "%", "obs.value": 17}
{"molecule": "CCc1ccc(S(=O)(=O)N[C@@H]2c3cc(C(=O)N(C)Cc4ccccc4)cnc3OC(C)(C)[C@H]2O)cc1 (racemic)", "u": "%", "obs.value": 12}
{"molecule": "CCc1ccc(S(=O)(=O)N[C@@H]2c3cc(C(=O)N(CC)Cc4c(F)cccc4Cl)cnc3OC(C)(C)[C@H]2O)cc1 (racemic)", "u": "%", "obs.value": 54}
{"molecule": "CCc1ccc(S(=O)(=O)N[C@@H]2c3cc(C(=O)N(CC)Cc4ccccc4)cnc3OC(C)(C)[C@H]2O)cc1 (racemic)", "u": "%", "obs.value": 20}
{"molecule": "CCc1ccc(S(=O)(=O)N[C@@H]2c3cc(C(=O)N4CCc5ccccc54)cnc3OC(C)(C)[C@H]2O)cc1 (racemic)", "u": "%", "obs.value": 30}
{"molecule": "CCc1ccc(S(=O)(=O)N[C@@H]2c3cc(C(=O)NCc4ccccc4F)cnc3OC(C)(C)[C@H]2O)cc1 (racemic)", "u": "%", "obs.value": 4}
{"molecule": "CCc1ccc(S(=O)(=O)N[C@@H]2c3cc(C(=O)N(CC)c4ccc(OC)cc4)cnc3OC(C)(C)[C@H]2O)cc1 (racemic)", "u": "%", "obs.value": 22}
